Data origin, for the record: patent US11814363B2

assayExplanation: Visual solubility estimate of amorphous Compound 1 in solvents
Assay type: physicochemical
measurementParameters: t-butyl methyl ether (MTBE), 23 °C, organic solvent or mixture, thermodynamic from solid, t-Butyl Methyl Ether (MTBE); RT (~23° C.); visually estimated; read-out: Solubility at RT
recordedMetric: solubility

What value of solubility has been recorded for this entry: CC(=O)c1nn(CC(=O)N2C[C@H](F)C[C@H]2C(=O)Nc2cccc(Br)n2)c2ccc(-c3cnc(C)nc3)cc12
< 6000 µg/mL

###

assayExplanation: Visual solubility estimate of amorphous Compound 1 in solvents
Type: physicochemical
measurementParameters: ethyl acetate, 23 °C, organic solvent or mixture, thermodynamic from solid, Ethyl Acetate; RT (~23° C.); visually estimated; read-out: Solubility at RT
recordedMetric: solubility

Entry under review: CC(=O)c1nn(CC(=O)N2C[C@H](F)C[C@H]2C(=O)Nc2cccc(Br)n2)c2ccc(-c3cnc(C)nc3)cc12 . Reported solubility?
91 to 364 mg/mL
